- experimental-protocol: Unbound fraction in Sprague-Dawley rat brain at 10 mg/kg, sc by equilibrium dialysis method
- Assay type: ADME, organism-based
- Set-up: dose 10 mg/kg, route subcutaneous
property-measured: fraction unbound

P = N[C@H]1Cc2ccccc2N(O)C1=O
Q = N[C@H]1Cc2cc(Oc3ccccc3)ccc2N(O)C1=O
Query string: Of the two listed items, which has the higher fraction unbound? First: P Second: Q When you have decided, please share the label of that item.
Result string: P
(P: 0.393, Q: 0.0099)

----------
- target-under-test: Kynurenine--oxoglutarate transaminase 3 (Homo sapiens)
- Sequence (Q6YP21 whole entry): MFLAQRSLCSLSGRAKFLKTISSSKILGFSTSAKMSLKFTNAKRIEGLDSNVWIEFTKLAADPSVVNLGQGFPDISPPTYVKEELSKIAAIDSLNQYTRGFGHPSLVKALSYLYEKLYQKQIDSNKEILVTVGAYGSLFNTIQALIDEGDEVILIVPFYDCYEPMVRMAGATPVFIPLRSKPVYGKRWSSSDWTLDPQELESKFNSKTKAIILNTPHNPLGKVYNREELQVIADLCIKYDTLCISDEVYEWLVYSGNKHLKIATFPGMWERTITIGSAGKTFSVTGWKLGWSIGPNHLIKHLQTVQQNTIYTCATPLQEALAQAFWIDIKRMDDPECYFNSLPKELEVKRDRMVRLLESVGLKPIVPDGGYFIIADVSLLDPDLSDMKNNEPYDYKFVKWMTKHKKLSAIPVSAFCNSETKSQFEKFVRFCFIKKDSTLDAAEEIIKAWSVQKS
property-measured: pIC50
Note on pIC50: it is the negative log10 of concentration, concentration in mol/L.

Record N[C@H]1Cc2cc(Oc3ccccc3)ccc2N(O)C1=O has Kynurenine--oxoglutarate transaminase 3 (Homo sapiens) pIC50 equal to 5.91

----------
- target-under-test: Kynurenine/alpha-aminoadipate aminotransferase, mitochondrial (Homo sapiens)
property-measured: pIC50
Note on pIC50: it is the negative log10 of concentration, concentration in mol/L.

Record N[C@H]1Cc2cc(Oc3ccccc3)ccc2N(O)C1=O has Kynurenine/alpha-aminoadipate aminotransferase, mitochondrial (Homo sapiens) pIC50 equal to 7.64

----------
- target-under-test: Kynurenine/alpha-aminoadipate aminotransferase, mitochondrial (Homo sapiens, UniProt Q8N5Z0)
- Sequence (Q8N5Z0 whole entry): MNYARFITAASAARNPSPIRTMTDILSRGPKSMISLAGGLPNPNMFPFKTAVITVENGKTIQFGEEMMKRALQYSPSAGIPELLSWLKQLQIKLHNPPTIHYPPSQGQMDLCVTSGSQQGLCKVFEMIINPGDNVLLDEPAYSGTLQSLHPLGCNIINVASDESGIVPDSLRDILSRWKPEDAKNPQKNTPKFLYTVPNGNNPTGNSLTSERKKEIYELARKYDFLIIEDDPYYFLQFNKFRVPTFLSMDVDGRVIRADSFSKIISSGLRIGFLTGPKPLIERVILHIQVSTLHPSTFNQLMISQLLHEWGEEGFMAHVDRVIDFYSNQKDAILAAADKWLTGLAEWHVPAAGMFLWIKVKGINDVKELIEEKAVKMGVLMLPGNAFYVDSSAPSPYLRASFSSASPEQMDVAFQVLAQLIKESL
- experimental-protocol: Irreversible inhibition of human KAT2 using L-kynurenine as substrate measured every 5 mins over 16 hrs by SpectraMax plate reader analysis
property-measured: Ki (nM)

> print(dat)
                     compound.smiles  property.measured  result.units  recorded.result
1  COc1ccc2c(c1)N(O)C(=O)[C@@H](N)C2                 Ki            nM              7.7

a = N[C@H]1Cc2ccccc2N(O)C1=O
b = N[C@H]1Cc2cc(Oc3ccccc3)ccc2N(O)C1=O
Query string: Lowest Ki? choose a or b When you have decided, please share the label of that item.
Result string: b
(b: 7.1 nM, a: 14.2 nM)
